# target under test: T1, GFP-NLRP6 monomer (Homo sapiens, UniProt P59044 1-892)
# T1 sequence: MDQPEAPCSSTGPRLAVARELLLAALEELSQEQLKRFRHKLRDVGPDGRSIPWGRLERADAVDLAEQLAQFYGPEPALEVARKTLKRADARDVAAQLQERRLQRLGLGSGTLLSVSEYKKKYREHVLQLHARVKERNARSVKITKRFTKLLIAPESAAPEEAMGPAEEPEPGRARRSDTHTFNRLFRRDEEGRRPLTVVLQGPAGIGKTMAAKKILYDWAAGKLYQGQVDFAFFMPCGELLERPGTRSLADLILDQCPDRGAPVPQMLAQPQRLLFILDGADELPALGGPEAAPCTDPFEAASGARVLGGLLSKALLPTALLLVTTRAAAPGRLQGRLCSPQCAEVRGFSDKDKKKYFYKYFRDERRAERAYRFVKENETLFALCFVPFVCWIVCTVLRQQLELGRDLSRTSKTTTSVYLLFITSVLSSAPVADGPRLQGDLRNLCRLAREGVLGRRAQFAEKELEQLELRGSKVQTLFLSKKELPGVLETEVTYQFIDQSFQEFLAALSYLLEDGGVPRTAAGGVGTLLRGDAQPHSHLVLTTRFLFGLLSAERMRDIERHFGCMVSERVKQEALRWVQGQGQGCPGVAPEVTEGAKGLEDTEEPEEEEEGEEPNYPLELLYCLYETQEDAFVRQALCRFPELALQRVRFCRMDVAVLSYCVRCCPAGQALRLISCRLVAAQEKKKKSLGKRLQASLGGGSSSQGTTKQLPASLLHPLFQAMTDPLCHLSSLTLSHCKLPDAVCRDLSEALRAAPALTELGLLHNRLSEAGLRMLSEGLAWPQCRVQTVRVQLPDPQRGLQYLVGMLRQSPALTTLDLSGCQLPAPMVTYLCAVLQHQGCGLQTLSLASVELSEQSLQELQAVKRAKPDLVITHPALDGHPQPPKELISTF
# procedure text: MST
pKd: −log10 of the molar value.

binder: 20-bp dsRNA (dsRNA) RNA 1: GACCUUCUGAUCAGAAGGUC RNA 2: GACCUUCUGAUCAGAAGGUC
pKd: ~5.92
